Each recorded value in this set is attributed to patent US20070009593A1.

Please respond with reported IC50 for every item in the list.
Test system: Caco 2 cells
Assay: proliferation / combination assay in colon cancer cells
Assay type: cell-based
Details: Homo sapiens; Caco 2, single agent; read-out: IC50
Value expressed in µM; do not type the unit.

// lookup IC50 for CC(=O)O[C@@]12CO[C@@H]1C[C@H](O)[C@@]1(C)C(=O)[C@H](O)C3=C(C)[C@@H](OC(=O)[C@H](O)[C@@H](NC(=O)OC(C)(C)C)c4ccccc4)C[C@@](O)([C@@H](OC(=O)c4ccccc4)[C@H]21)C3(C)C
0.005

// lookup IC50 for CC(C)c1nc(CN(C)C(=O)N[C@H](C(=O)N[C@@H](Cc2ccccc2)C[C@H](O)[C@H](Cc2ccccc2)NC(=O)OCc2cncs2)C(C)C)cs1
45

* * *

Test: in vivo
Conditions: mouse, ip
value_kind: half-life

// lookup half-life for CC(C)c1nc(CN(C)C(=O)N[C@H](C(=O)N[C@@H](Cc2ccccc2)C[C@H](O)[C@H](Cc2ccccc2)NC(=O)OCc2cncs2)C(C)C)cs1
< 3 h

* * *

Tested on: MCF7
Test: MTT assay, breast cancer line
Format: cell-based
Settings: Homo sapiens, MCF7, read-out: Ritonavir IC50
value_kind: pIC50
pIC50 is a log-scale quantity: -log10 of the concentration expressed in molar.

// lookup pIC50 for CC(C)c1nc(CN(C)C(=O)N[C@H](C(=O)N[C@@H](Cc2ccccc2)C[C@H](O)[C@H](Cc2ccccc2)NC(=O)OCc2cncs2)C(C)C)cs1 [Ritonavir, ritonavir]
4.60
